Origin of measurements: PubChem BioAssay AID248

System: L1210 leukemia ip in BDF1 mice, survival T/C
Assay: NCI In Vivo Anticancer Drug Screen. Data for tumor model L1210 Leukemia (intraperitoneal) in B6D2F1 (BDF1) mice
Conditions: endpoint: mean survival time; dose: 100.0 mg/kg/injection; schedule: Q01DX001 (ip); vehicle: saline; higher = longer survival
Inconclusive results and toxic doses are left out.
# T/C annotations
Property Measured: T/C

compound=C[n+]1ccc(C=O)cc1 property_measured=T/C observed_value="105 % of control"
compound=Cn1cc[n+](C)c1 property_measured=T/C observed_value="102 % of control"
compound=Cc1cc(C)c(Br)c(C)c1C property_measured=T/C observed_value="104 % of control"
compound=CN(N=O)c1ccccc1 property_measured=T/C observed_value="93 % of control"
compound=c1ccc2c(c1)CCCN2 property_measured=T/C observed_value="99 % of control"
compound=O=c1[nH]c2cnn(-c3ccccc3)c2c(=O)n1OS(=O)(=O)c1ccccc1 property_measured=T/C observed_value="100 % of control"
compound=Cc1[nH]c2c(O)ccc(O)c2c1C property_measured=T/C observed_value="106 % of control"
compound="O=C(OCC1OC(OC(=O)c2ccccc2)C(OC(=O)c2ccccc2)C(OC(=O)c2ccccc2)C1OC(=O)c1ccccc1)c1ccccc1 (centres undefined)" property_measured=T/C observed_value="98 % of control"
compound=CNCCc1ccc(O)cc1 property_measured=T/C observed_value="104 % of control"
compound=Cc1ccc2cc3c(cc(C)c4ccccc43)c3c2c1CC3 property_measured=T/C observed_value="102 % of control"
compound=CNC(=O)Oc1ccc(C(=O)OC)cc1 property_measured=T/C observed_value="93 % of control"
compound=CC(C)(CC(=O)NNc1ccccc1)C(=O)O property_measured=T/C observed_value="102 % of control"
compound="O=C1C(O)CCN1Cc1ccccc1 (centres undefined)" property_measured=T/C observed_value="104 % of control"
compound=CS(=O)(=O)C(=C(N1CCCCC1)N1CCCCC1)S(=O)(=O)Cc1ccccc1 property_measured=T/C observed_value="100 % of control"
compound="CC(=O)O/N=C(\\C)C12CCCCC1C(O)CCC2 (centres undefined)" property_measured=T/C observed_value="91 % of control"
compound="CN(C)C=NCC1CCCO1 (centres undefined)" property_measured=T/C observed_value="97 % of control"
compound="COC1OC(CI)C(O)C(O)C1O (centres undefined)" property_measured=T/C observed_value="109 % of control"
compound=S=P(c1ccccc1)(c1ccccc1)c1cccc2ccccc12 property_measured=T/C observed_value="100 % of control"
compound=COc1ccccc1CNCCCO property_measured=T/C observed_value="102 % of control"
compound=Cc1c(C)c2ccccc2[nH]c1=O property_measured=T/C observed_value="100 % of control"
compound=CC(=O)c1ccc(O)c(CN(C2CCCCC2)C2CCCCC2)c1O property_measured=T/C observed_value="100 % of control"
compound=CCCOc1ccc(=S)[nH]n1 property_measured=T/C observed_value="103 % of control"
compound=CCCNc1ncnc2c1cnn2C property_measured=T/C observed_value="107 % of control"
compound="Cn1c(=O)c2[nH]c(C3CC4C5CCC(C5)C4C3)nc2n(C)c1=O (centres undefined)" property_measured=T/C observed_value="108 % of control"
compound="CCCCCC1OC1CC1OC1CCCCCCCC(=O)OC (centres undefined)" property_measured=T/C observed_value="109 % of control"
compound="CCCCCC(C)(O)CCC (centres undefined)" property_measured=T/C observed_value="93 % of control"
compound=COc1ccc(C(=O)OC(c2ccccc2)c2ccccc2)cc1 property_measured=T/C observed_value="98 % of control"
compound=COc1cc(C)nc2ccc(Cc3ccc4nc(C)cc(OC)c4c3)cc12 property_measured=T/C observed_value="94 % of control"
compound=Cc1ncc(C#N)c(C)n1 property_measured=T/C observed_value="107 % of control"

* * *

System: L1210 leukemia ip in BDF1 mice, survival T/C
Test: NCI In Vivo Anticancer Drug Screen. Data for tumor model L1210 Leukemia (intraperitoneal) in B6D2F1 (BDF1) mice
Conditions: endpoint: mean survival time; dose: 200.0 mg/kg/injection; schedule: Q04DX003 (ip); vehicle: Klucel (hydroxypropylcellulose) (HPC); higher = longer survival
Toxic doses and inconclusive results are not listed.
Property Measured: T/C

molecule=C/C(=N\O)C1(O)CCCCC1 observed_value="101 % of control"
molecule=Cc1ccccc1N=Cc1cccc([N+](=O)[O-])c1 observed_value="101 % of control"
molecule="CS(=O)Cc1cccc2ccccc12 (stereo not given)" observed_value="96 % of control"
molecule="CC1CN(C(=O)Nc2ccc(Cl)cc2)CC(C)O1 (stereo not given)" observed_value="89 % of control"
molecule="OC1CNCCc2ccccc21 (stereo not given)" observed_value="88 % of control"
molecule="O=S(=O)(OCC1CO1)c1ccc(F)cc1 (stereo not given)" observed_value="104 % of control"
molecule=O=C(O)c1c(Cl)ccc([N+](=O)[O-])c1Cl observed_value="95 % of control"
molecule=O=C(O)c1ccccc1C(=O)Nc1cc(Cl)ccc1Cl observed_value="89 % of control"
molecule=Clc1c(Cl)c(CBr)c(Cl)c(CBr)c1Cl observed_value="109 % of control"
molecule=Clc1ccc(S/C=C/c2ccccc2)cc1 observed_value="98 % of control"

* * *

System: L1210 leukemia ip in BDF1 mice, survival T/C
Assay: NCI In Vivo Anticancer Drug Screen. Data for tumor model L1210 Leukemia (intraperitoneal) in B6D2F1 (BDF1) mice
Settings: endpoint: mean survival time; dose: 400.0 mg/kg/injection; schedule: Q01DX001 (ip); vehicle: Klucel (hydroxypropylcellulose) (HPC); higher = longer survival
Toxic doses and inconclusive results are not listed.
Property Measured: T/C

compound="S=P(=Nc1ccccc1)c1ccccc1 (stereo not drawn)" property_measured=T/C observed_value="88 % of control"
compound=CN1CN(c2ccccc2)C2(CCN(c3nc4ccccc4s3)CC2)C1=O property_measured=T/C observed_value="96 % of control"
compound=CCCCc1c(N)nc(N)nc1-c1ccccc1 property_measured=T/C observed_value="94 % of control"
compound=Cc1nc(N)[nH]c(=O)c1CCCNc1cccc(C(F)(F)F)c1 property_measured=T/C observed_value="97 % of control"
compound="O=C1c2ccccc2C2(c3ccccc3)C=NNC12c1ccccc1 (stereo not drawn)" property_measured=T/C observed_value="95 % of control"
compound=Oc1ccc2ccccc2c1N=Nc1nccs1 property_measured=T/C observed_value="98 % of control"
compound="CC1(C)OCC(C2OC3OC(c4ccccc4)=NC3C2O)O1 (stereo not drawn)" property_measured=T/C observed_value="101 % of control"
compound=O=c1c(C(Cl)Cl)nc2ccccc2n1O property_measured=T/C observed_value="101 % of control"
compound=CSc1nccc(NN=C2CCCCC2)n1 property_measured=T/C observed_value="91 % of control"
compound=CCc1c(N)nc(=O)[nH]c1C(=O)O property_measured=T/C observed_value="117 % of control"
compound="CC1(O)C(=O)C=Cc2ccccc21 (stereo not drawn)" property_measured=T/C observed_value="96 % of control"
compound=Cc1cc(S(=O)(=O)O)cc(N)c1N property_measured=T/C observed_value="91 % of control"
compound=Cc1cc(NC(=O)Nc2cc(F)ccc2F)no1 property_measured=T/C observed_value="101 % of control"

* * *

Test system: L1210 leukemia ip in BDF1 mice, survival T/C
Assay: NCI In Vivo Anticancer Drug Screen. Data for tumor model L1210 Leukemia (intraperitoneal) in B6D2F1 (BDF1) mice
Details: endpoint: mean survival time; dose: 12.5 mg/kg/injection; schedule: Q04DX003 (ip); vehicle: saline; higher = longer survival
Toxic doses and inconclusive results are not listed.
Property Measured: T/C

compound="[Cu+2].[NH-]C(CC(N)=O)C(=O)O.[NH-]C(CC(N)=O)C(=O)O (centres undefined)" observed_value="92 % of control"
compound=CC#CC#C/C=C1/C=CC(=O)O1 observed_value="103 % of control"
compound=CC1(C)C[N+](Cc2ccccc2)(Cc2ccccc2)C1 observed_value="112 % of control"
compound=O=C(Cn1ccc(=O)[nH]c1=O)Nc1nccs1 observed_value="122 % of control"

* * *

System: L1210 leukemia ip in BDF1 mice, survival T/C
Assay: NCI In Vivo Anticancer Drug Screen. Data for tumor model L1210 Leukemia (intraperitoneal) in B6D2F1 (BDF1) mice
Details: endpoint: mean survival time; dose: 50.0 mg/kg/injection; schedule: Q04DX003 (ip); vehicle: saline
Inconclusive results and toxic doses are left out. No stated cut-off is given here; in the data, active means T/C of 150% or more; inactive means T/C below 125%.
Outcomes: active, inactive

compound=CC1(C)C[N+](Cc2ccccc2)(Cc2ccccc2)C1 assigned_label=inactive
compound=OCCN1CCN(CCCN2c3ccccc3Sc3ccc(C(F)(F)F)cc32)CC1 assigned_label=active
compound=OCCN1CCN(CCCN2c3ccccc3C=Cc3ccccc32)CC1 assigned_label=inactive
compound="CC(=O)OCC1OC(OC(C)=O)C(NC(=O)N(C)C)C(OC(C)=O)C1OC(C)=O (stereo unspecified)" assigned_label=inactive
compound=CN(C)CCOC(=O)COc1ccc(Cl)cc1 assigned_label=inactive
compound=Cc1[nH]c(=S)sc1C assigned_label=inactive
